pIC50: −log10 of the molar value.
Reported pIC50, UniProtKB P31652.
Sequence (P31652 whole entry): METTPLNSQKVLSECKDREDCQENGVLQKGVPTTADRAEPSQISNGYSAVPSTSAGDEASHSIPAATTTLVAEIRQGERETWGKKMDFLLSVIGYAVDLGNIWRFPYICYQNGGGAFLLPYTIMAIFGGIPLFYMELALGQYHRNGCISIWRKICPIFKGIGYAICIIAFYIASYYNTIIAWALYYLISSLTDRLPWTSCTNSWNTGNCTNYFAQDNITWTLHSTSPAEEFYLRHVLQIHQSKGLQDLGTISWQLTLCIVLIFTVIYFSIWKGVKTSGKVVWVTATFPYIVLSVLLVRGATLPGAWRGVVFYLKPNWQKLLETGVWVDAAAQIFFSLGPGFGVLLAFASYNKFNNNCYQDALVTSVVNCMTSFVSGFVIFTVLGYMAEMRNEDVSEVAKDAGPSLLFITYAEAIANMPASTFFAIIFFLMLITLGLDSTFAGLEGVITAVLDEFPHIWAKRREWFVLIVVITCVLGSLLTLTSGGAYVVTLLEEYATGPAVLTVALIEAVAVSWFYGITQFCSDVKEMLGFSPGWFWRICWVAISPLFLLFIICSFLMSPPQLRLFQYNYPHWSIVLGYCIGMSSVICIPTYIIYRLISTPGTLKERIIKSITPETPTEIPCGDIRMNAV
assay readout: pIC50

[[record]]
compound = "CN1[C@@H]2CC[C@H]1C(c1ccccc1)C(c1ccccc1)C2 (mixture of isomers; form 2)"
assay_target = "UniProtKB P31652"
value_reported = 3.73

[[record]]
compound = "CN1[C@@H]2CC[C@H]1C(c1ccccc1)C(c1ccccc1)C2 (mixture of isomers; form 1)"
assay_target = "UniProtKB P31652"
value_reported = 4.46

[[record]]
compound = "Cc1ccc(C2C[C@H]3CCC(C2c2ccccc2)N3C)cc1 (stereo in doubt; (R)-3b)"
assay_target = "UniProtKB P31652"
value_reported = 4.96

[[record]]
compound = "CN1C2CC[C@@H]1C[C@@H](c1ccccc1)[C@@H]2c1ccccc1 (single isomer, unassigned; form 2)"
assay_target = "UniProtKB P31652"
value_reported = 4.38

[[record]]
compound = "Cc1ccc(C2C[C@H]3CCC(C2c2ccccc2)N3C)cc1 (stereo in doubt; (R)-4b)"
assay_target = "UniProtKB P31652"
value_reported = 4.80

[[record]]
compound = "CN1C2CC[C@@H]1C[C@@H](c1ccccc1)[C@@H]2c1ccccc1 (single isomer, unassigned; form 1)"
assay_target = "UniProtKB P31652"
value_reported = 4.68


---

target: Norepinephrine transporter (Rattus norvegicus, UniProt Q9WTR4)
Sequence (Q9WTR4 whole entry): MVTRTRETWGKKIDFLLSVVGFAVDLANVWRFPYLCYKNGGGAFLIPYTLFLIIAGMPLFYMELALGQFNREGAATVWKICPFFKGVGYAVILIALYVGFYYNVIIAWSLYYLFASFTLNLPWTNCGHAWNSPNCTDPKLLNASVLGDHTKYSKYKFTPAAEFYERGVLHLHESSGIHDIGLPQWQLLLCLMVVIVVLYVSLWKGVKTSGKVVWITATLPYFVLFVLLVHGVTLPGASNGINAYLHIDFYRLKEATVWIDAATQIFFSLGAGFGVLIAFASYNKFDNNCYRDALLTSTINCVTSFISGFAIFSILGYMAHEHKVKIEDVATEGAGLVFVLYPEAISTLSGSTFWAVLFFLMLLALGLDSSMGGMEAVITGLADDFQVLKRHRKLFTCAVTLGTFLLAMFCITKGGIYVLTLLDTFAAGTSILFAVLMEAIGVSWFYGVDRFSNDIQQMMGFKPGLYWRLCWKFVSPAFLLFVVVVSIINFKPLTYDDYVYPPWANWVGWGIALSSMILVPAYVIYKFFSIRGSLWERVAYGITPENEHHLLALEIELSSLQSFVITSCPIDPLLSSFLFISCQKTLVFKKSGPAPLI
Lab note: anything with IC50 below 3 µM is marked Criterion met; values at 3 µM or higher are marked Criterion not met.

[[record]]
compound = "Cc1ccc(C2C[C@H]3CCC(C2c2ccccc2)N3C)cc1 (stereo in doubt; (R)-4b)"
assay_target = "Norepinephrine transporter (Rattus norvegicus, UniProt Q9WTR4)"
answer_label = "Criterion not met"

[[record]]
compound = "CN1C2CC[C@@H]1C[C@@H](c1ccccc1)[C@@H]2c1ccccc1 (single isomer, unassigned; form 2)"
assay_target = "Norepinephrine transporter (Rattus norvegicus, UniProt Q9WTR4)"
answer_label = "Criterion met"

[[record]]
compound = "CN1[C@@H]2CC[C@H]1C(c1ccccc1)C(c1ccccc1)C2 (mixture of isomers; form 2)"
assay_target = "Norepinephrine transporter (Rattus norvegicus, UniProt Q9WTR4)"
answer_label = "Criterion met"

[[record]]
compound = "CN1[C@@H]2CC[C@H]1C(c1ccccc1)C(c1ccccc1)C2 (mixture of isomers; form 1)"
assay_target = "Norepinephrine transporter (Rattus norvegicus, UniProt Q9WTR4)"
answer_label = "Criterion met"

[[record]]
compound = "CN1C2CC[C@@H]1C[C@@H](c1ccccc1)[C@@H]2c1ccccc1 (single isomer, unassigned; form 1)"
assay_target = "Norepinephrine transporter (Rattus norvegicus, UniProt Q9WTR4)"
answer_label = "Criterion met"

[[record]]
compound = "Cc1ccc(C2C[C@H]3CCC(C2c2ccccc2)N3C)cc1 (stereo in doubt; (R)-3b)"
assay_target = "Norepinephrine transporter (Rattus norvegicus, UniProt Q9WTR4)"
answer_label = "Criterion met"


---

molecular target: Sodium-dependent dopamine transporter (Rattus norvegicus)
Sequence (P23977 whole entry): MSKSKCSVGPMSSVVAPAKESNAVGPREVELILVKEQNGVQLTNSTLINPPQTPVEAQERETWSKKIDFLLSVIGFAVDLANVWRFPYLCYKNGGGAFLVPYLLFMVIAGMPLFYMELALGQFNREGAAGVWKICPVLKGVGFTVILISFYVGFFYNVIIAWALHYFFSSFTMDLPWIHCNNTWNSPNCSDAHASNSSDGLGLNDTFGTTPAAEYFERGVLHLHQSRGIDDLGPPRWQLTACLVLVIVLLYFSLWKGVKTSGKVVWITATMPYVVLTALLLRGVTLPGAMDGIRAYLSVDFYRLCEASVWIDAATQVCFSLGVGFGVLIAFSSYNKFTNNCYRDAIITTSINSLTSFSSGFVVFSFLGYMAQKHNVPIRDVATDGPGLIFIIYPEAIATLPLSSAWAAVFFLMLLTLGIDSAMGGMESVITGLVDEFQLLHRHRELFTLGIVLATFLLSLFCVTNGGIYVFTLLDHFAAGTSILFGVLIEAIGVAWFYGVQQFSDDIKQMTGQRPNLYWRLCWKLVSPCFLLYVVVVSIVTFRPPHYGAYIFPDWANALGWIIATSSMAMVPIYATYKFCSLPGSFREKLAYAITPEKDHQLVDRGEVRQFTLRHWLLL
Here the recorded log10 of IC50 is given for each entry.
assay readout: log10 of IC50 (log10 of the value in nM)

[[record]]
molecule = "Cc1ccc(C2C[C@H]3CCC(C2c2ccccc2)N3C)cc1 (stereo in doubt; (R)-3b)"
assay_target = "Sodium-dependent dopamine transporter (Rattus norvegicus)"
value_reported = 0.29

[[record]]
molecule = "CN1C2CC[C@@H]1C[C@@H](c1ccccc1)[C@@H]2c1ccccc1 (single isomer, unassigned; form 2)"
assay_target = "Sodium-dependent dopamine transporter (Rattus norvegicus)"
value_reported = 2.84

[[record]]
molecule = "Cc1ccc(C2C[C@H]3CCC(C2c2ccccc2)N3C)cc1 (stereo in doubt; (R)-4b)"
assay_target = "Sodium-dependent dopamine transporter (Rattus norvegicus)"
value_reported = 2.63

[[record]]
molecule = "CN1[C@@H]2CC[C@H]1C(c1ccccc1)C(c1ccccc1)C2 (mixture of isomers; form 1)"
assay_target = "Sodium-dependent dopamine transporter (Rattus norvegicus)"
value_reported = 1.45

[[record]]
molecule = "CN1C2CC[C@@H]1C[C@@H](c1ccccc1)[C@@H]2c1ccccc1 (single isomer, unassigned; form 1)"
assay_target = "Sodium-dependent dopamine transporter (Rattus norvegicus)"
value_reported = 1.10

